biological target: HLA-B*58:01; experiment: IEDB peptide-MHC binding, purified MHC/direct/fluorescence; filed as Kd, often an IC50 or EC50 that approximates it; bounds were set here for any values at or beyond the usual limits of such assays; settings: source organism: Entamoeba histolytica HM-1:IMSS
ASSAY ENDPOINT: pKd
pKd here: minus log base 10 of the concentration, concentration in moles per litre.

What does the data say about its pKd? Entry: YLRPYMHGY
4.92

###

biological target: HLA-C*07:02; experiment: IEDB peptide-MHC binding, purified MHC/direct/fluorescence; filed as Kd, often an IC50 or EC50 that approximates it; bounds were set here for any values at or beyond the usual limits of such assays; settings: source organism: Cryptosporidium parvum Iowa II
ASSAY ENDPOINT: pKd
Reminder that pKd means the negative base-10 logarithm of the concentration expressed in mol/L.

Form field: pKd recorded for MQFPGSVGF with HLA-C*07:02 (enter value)
6.37
